Tested on: MALME-3M melanoma
Test Method Notes: NCI tumour cell line growth inhibition, 48 h
Recorded TGI for the following molecules

# count of solved cases: 4
[
  {
    "Molecule": "COC1=NC(NC2OCC(O)C(O)C2O)=C(NC(C)=O)CN1C (stereo not given)",
    "Target Or Test System": "MALME-3M melanoma",
    "TGI": "> 100 µM"
  },
  {
    "Molecule": "O=C(O)C(CSC(c1ccccc1)(c1ccccc1)c1ccccc1)N=Cc1cccs1 (stereo not given)",
    "Target Or Test System": "MALME-3M melanoma",
    "TGI": "> 69.5 µM"
  },
  {
    "Molecule": "CCOC(=O)C(Cc1ccccc1)NC(=O)c1ccc(N=NN(C)C)cc1 (stereo not given)",
    "Target Or Test System": "MALME-3M melanoma",
    "TGI": "> 100 µM"
  },
  {
    "Molecule": "CCOC(=O)c1c(C)nc2ccc(Cl)cc2c1-c1ccccc1",
    "Target Or Test System": "MALME-3M melanoma",
    "TGI": "42.3 µM"
  }
]

Q: I'd like to know its TGI. The molecule in question is CCOc1ccccc1N=Nc1c(-c2ccccc2)nn(C(=O)CC(=O)Nc2cccc(Cl)c2)c1-c1ccccc1
Result: > 100 µM

====

Tested on: CAKI-1 renal
Test Method Notes: NCI tumour cell line growth inhibition, 48 h
Readout Kind: TGI

[
  {
    "Compound": "CCC(C)OC(=O)C1C2CCC(O2)C1C(=O)O (configuration not stated)",
    "Readout Kind": "TGI",
    "Value Observed": "> 100 µM"
  },
  {
    "Compound": "COC(=O)C(=O)c1c2ccccc2n2ccc3c4ccccc4[nH]c3c12",
    "Readout Kind": "TGI",
    "Value Observed": "> 10 µM"
  },
  {
    "Compound": "CC#CS(=O)(=O)c1ccccc1",
    "Readout Kind": "TGI",
    "Value Observed": "2.36 µM"
  },
  {
    "Compound": "COc1ccc(C(c2ccc(C(C)C)cc(=O)c2O)c2ccc3cccnc3c2O)cc1 (configuration not stated)",
    "Readout Kind": "TGI",
    "Value Observed": "5.15 µM"
  },
  {
    "Compound": "O=C1N=C(c2ccccc2)OC1C(=O)c1ccccc1 (configuration not stated)",
    "Readout Kind": "TGI",
    "Value Observed": "> 100 µM"
  },
  {
    "Compound": "CNNCc1ccc(C(=O)NC(C)C)cc1",
    "Readout Kind": "TGI",
    "Value Observed": "> 500 µM"
  },
  {
    "Compound": "COc1cc(/C=C/C(=O)c2ccc(Nc3ncnc4ccccc34)cc2)cc(OC)c1",
    "Readout Kind": "TGI",
    "Value Observed": "> 100 µM"
  },
  {
    "Compound": "Cc1ccc2c(=O)cc(-c3cccc4ccccc34)[nH]c2n1",
    "Readout Kind": "TGI",
    "Value Observed": "> 100 µM"
  }
]

In the following, a different compound is considered.
Q: I'd like to know its TGI. The compound in question is Cc1cc(C)c(O)c(Cc2cccc(Cc3cc(C)cc(C)c3O)c2O)c1
Result: > 100 µM
